Overview of recorded dH for various binders
biological target: T1, extracellular signal-regulated kinase 2 (ERK2), unphosphorylated (UniProt P63086 1-358); experiment: ITC; PTPSLKIM, PTPSL, STEP or PSChimera titrated into ERK2 in the cell; 25 °C; 10 mM Tris pH 7.5, 150 mM NaCl, 0.1 mM EDTA, 0.5 mM TCEP; one-site model; triplicate; details: both partners purified
T1 construct: ERK2 (extracellular signal-regulated kinase 2), unphosphorylated; also called MAPK; source: final SEC (Superdex 75 26/60)
Give a bare numeral; the unit kcal/mol is implied.

Please review the entries below; each comes with its answer.
Binder	Measure	Units of measure	Value reported
IGLQERRGSNVSLTLDMS (peptide, UniProt Q15256 331-348, looked up, PTPSL/PTPBR7 (PTPRR, PTP STEP-like), residues 331-348 (KIM); human is stated for the PTPSL 332-655 construct; source: synthetic peptide (Biosynthesis, Inc.), HPLC purified, >98% purity) [PTPSLKIM peptide (PTPSL residues 331-348)]	dH	kcal/mol	-23.5
PTPSL (residues 332-655, human) (domain or fragment, UniProt Q15256 332-655, looked up, PTPSL/PTPBR7 (PTPRR, PTP STEP-like), human, residues 332-655 (KIM, KIS and catalytic domain); The results loosely call this construct 'full-length PTPSL'; the construct is residues 332-655; also called PTPBR7; PTPRR; source: final SEC) GLQERRGSNVSLTLDMSSLGNIEPFVSIPTPREKVAMEYLQSASRILTRSQLRDVVASSHLLQSEFMEIPMNFVDPKEIDIPRHGTKNRYKTILPNPLSRVCLRPKNVTDSLSTYINANYIRGYSGKEKAFIATQGPMINTVDDFWQMVWQEDSPVIVMITKLKEKNEKCVLYWPEKRGIYGKVEVLVISVNECDNYTIRNLVLKQGSHTQHVKHYWYTSWPDHKTPDSAQPLLQLMLDVEEDRLASQGRGPVVVHCSAGIGRTGCFIATSIGCQQLKEEGVVDALSIVCQLRMDRGGMVQTSEQYEFVHHALCLYESRLSAET	dH	kcal/mol	-22.3
PS_(Chimera) (PTPSL residues 332-373 with STEP residues 257-539) (other, human | mouse, UniProt Q15256 332-373, looked up, PTPSL (PTPRR), residues 332-373 (KIM and KIS); human is stated for the PTPSL 332-655 construct; STEP (PTPN5), residues 257-539 (catalytic domain); mouse is stated for the STEP 213-539 construct; Chimera of PTPSL KIMKIS fused to STEPCAT; source: gene synthesized by DNA 2.0; final SEC) GLQERRGSNVSLTLDMSSLGNIEPFVSIPTPREKVAMEYLQSASRVLRAEELHEKALDPFLLQAEFFEIPMNFVDPKEYDIPGLVRKNRYKTILPNPHSRVRLTSPDPEDPLSSYINANYIRGYSGEEKVYIATQGPIVSTVADFWRMVWQERTPIIVMITNIEEMNEKCTEYWPEEQVVHDGVEITVQKVIHTEDYRLRLISLRRGTEERSLKHYWFTSWPDQKTPDRAPPLLHLVREVEEAAQQEGPHCSPIIVHCSAGIGRTGCFIATSICCQQLRREGVVDILKTTCQLRQDRGGMIQTCEQYQFVHHAMSLYEKQLSLQS	dH	kcal/mol	-18.5

// next entry
Looking up STEP (residues 213-539, mouse) (domain or fragment, UniProt P54830 213-539, looked up, STEP (PTPN5, striatal enriched protein tyrosine phosphatase), mouse, residues 213-539 (KIM, KIS and catalytic domain); The results loosely call this construct 'full-length STEP'; the construct is residues 213-539; also called STEP_(213-539); PTPN5; source: final SEC) MGLQERRGSNVSLTLDMCTPGCNEEGFGYLVSPREESAHEYLLSASRVLRAEELHEKALDPFLLQAEFFEIPMNFVDPKEYDIPGLVRKNRYKTILPNPHSRVRLTSPDPEDPLSSYINANYIRGYSGEEKVYIATQGPIVSTVADFWRMVWQERTPIIVMITNIEEMNEKCTEYWPEEQVVHDGVEITVQKVIHTEDYRLRLISLRRGTEERSLKHYWFTSWPDQKTPDRAPPLLHLVREVEEAAQQEGPHCSPIIVHCSAGIGRTGCFIATSICCQQLRREGVVDILKTTCQLRQDRGGMIQTCEQYQFVHHAMSLYEKQLSLQS , I found its dH recorded as -29.5
